Test system: Saccharomyces cerevisiae
Test: protein stability index of tFT-peptide fusion (C-terminal peptide) (PSI (0-1 scale)); higher = more stable (slower turnover)
Conditions: genetic background: wild type; temperature: 30 C
MEASUREMENT KIND: protein stability index
Please respond with just the number, no unit label.

Consider `WFLRLVGAVFAL` . Its measured protein stability index is 0.485

Consider `GGYCQMFFLYFR` . Its measured protein stability index is 0.0833

Consider `SVLVWFLVFLVW` . Its measured protein stability index is 0.211

Consider `PWWDALLRARVC` . Its measured protein stability index is 0.115

Consider `MSIWKIFIWRLG` . Its measured protein stability index is 0.153

Consider `LGRLDYKRMKRA` . Its measured protein stability index is 0.51

Consider `RKWLFFRSWRYV` . Its measured protein stability index is 0.0663

Consider `AGAFRIVWWALR` . Its measured protein stability index is 0.578

Consider `RLRHPPRLSTLC` . Its measured protein stability index is 0.338

Consider `ARGVAAAFVSGF` . Its measured protein stability index is 0.653

###

Tested on: Saccharomyces cerevisiae;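 also: PSI is a weighted mean of sequencing reads over stability bins, variants kept only with over 10 reads, mCherry proximal and sfGFP distal, peptide attached via GGGS linker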
Assay: protein stability index of tFT-peptide fusion (C-terminal peptide) (PSI (0-1 scale)); higher = more stable (slower turnover)
Conditions: genetic background: wild type; temperature: 37 C
Quick rule: protein stability index of at least 0.5 means Condition met, below that means Condition not met.

In: Check if protein stability index >= 0.5 (inclusive). Item: `PWWDALLRARVC`
Out: Condition not met

In: Check if protein stability index >= 0.5 (inclusive). Item: `YVLLDFFFFFLV`
Out: Condition not met

In: Check if protein stability index >= 0.5 (inclusive). Item: `IIIGTLLYVNVR`
Out: Condition not met

In: Check if protein stability index >= 0.5 (inclusive). Item: `PHFDLLLCLSLN`
Out: Condition met

In: Check if protein stability index >= 0.5 (inclusive). Item: `GWSRRFFCLFIV`
Out: Condition not met

In: Check if protein stability index >= 0.5 (inclusive). Item: `CPMFVKFFFCLY`
Out: Condition not met

In: Check if protein stability index >= 0.5 (inclusive). Item: `WGRENLTRVKLE`
Out: Condition not met

In: Check if protein stability index >= 0.5 (inclusive). Item: `IVCAVTSIFLFF`
Out: Condition not met

In: Check if protein stability index >= 0.5 (inclusive). Item: `VYQAFIFRMSLF`
Out: Condition not met

In: Check if protein stability index >= 0.5 (inclusive). Item: `LLPTSVFLPSLF`
Out: Condition met

In: Check if protein stability index >= 0.5 (inclusive). Item: `GVCWCVLFVVGC`
Out: Condition not met

In: Check if protein stability index >= 0.5 (inclusive). Item: `SMGVLITYLVQV`
Out: Condition not met

In: Check if protein stability index >= 0.5 (inclusive). Item: `GLPRRFLLLSVV`
Out: Condition not met

In: Check if protein stability index >= 0.5 (inclusive). Item: `GPRRARLPNFLA`
Out: Condition not met

In: Check if protein stability index >= 0.5 (inclusive). Item: `LEGLLIRVYITF`
Out: Condition not met

In: Check if protein stability index >= 0.5 (inclusive). Item: `WVGWVVVLGCVG`
Out: Condition not met

In: Check if protein stability index >= 0.5 (inclusive). Item: `FFFLPLFLVLSL`
Out: Condition not met

In: Check if protein stability index >= 0.5 (inclusive). Item: `AVCVVVMAVFVG`
Out: Condition not met

In: Check if protein stability index >= 0.5 (inclusive). Item: `SVIVSSFFLWVF`
Out: Condition not met

In: Check if protein stability index >= 0.5 (inclusive). Item: `PLPSEKAPTLLL`
Out: Condition met

In: Check if protein stability index >= 0.5 (inclusive). Item: `FLSLVIVLRWFL`
Out: Condition not met

In: Check if protein stability index >= 0.5 (inclusive). Item: `MFFSWVLSISLT`
Out: Condition not met

In: Check if protein stability index >= 0.5 (inclusive). Item: `GCWRVELLVFMC`
Out: Condition not met

In: Check if protein stability index >= 0.5 (inclusive). Item: `VCVARICIWDFL`
Out: Condition met

In: Check if protein stability index >= 0.5 (inclusive). Item: `VWICPTLFLLFS`
Out: Condition met

In: Check if protein stability index >= 0.5 (inclusive). Item: `ALSGLARFIVCH`
Out: Condition not met

In: Check if protein stability index >= 0.5 (inclusive). Item: `WLWFVGCLAAPL`
Out: Condition met

In: Check if protein stability index >= 0.5 (inclusive). Item: `WFLRLVGAVFAL`
Out: Condition met

In: Check if protein stability index >= 0.5 (inclusive). Item: `PPSPAPLPDSLP`
Out: Condition met

In: Check if protein stability index >= 0.5 (inclusive). Item: `PPRCLLPPPSRS`
Out: Condition met

In: Check if protein stability index >= 0.5 (inclusive). Item: `CFLSWSLRFFIL`
Out: Condition not met

In: Check if protein stability index >= 0.5 (inclusive). Item: `TDVLLLQLLISV`
Out: Condition not met

In: Check if protein stability index >= 0.5 (inclusive). Item: `LGRLDYKRMKRA`
Out: Condition met

In: Check if protein stability index >= 0.5 (inclusive). Item: `LVSVLLLFWFLF`
Out: Condition not met

In: Check if protein stability index >= 0.5 (inclusive). Item: `FFVEKRVFFGII`
Out: Condition not met

In: Check if protein stability index >= 0.5 (inclusive). Item: `VSFLVSIFVSGV`
Out: Condition not met

In: Check if protein stability index >= 0.5 (inclusive). Item: `GIGYMFLNVWLV`
Out: Condition not met

In: Check if protein stability index >= 0.5 (inclusive). Item: `PPHRTLLQLRTN`
Out: Condition not met

In: Check if protein stability index >= 0.5 (inclusive). Item: `VPIIVVVYVFVT`
Out: Condition not met

In: Check if protein stability index >= 0.5 (inclusive). Item: `SFFYFVFYYLSF`
Out: Condition not met

In: Check if protein stability index >= 0.5 (inclusive). Item: `YVSSFSLVVLLS`
Out: Condition not met

In: Check if protein stability index >= 0.5 (inclusive). Item: `CVSFFRCLFLIV`
Out: Condition not met

In: Check if protein stability index >= 0.5 (inclusive). Item: `LVSCGNFLVFCF`
Out: Condition not met

In: Check if protein stability index >= 0.5 (inclusive). Item: `RIVSGVVLLVFV`
Out: Condition met

In: Check if protein stability index >= 0.5 (inclusive). Item: `PSPHRAPPGGHP`
Out: Condition met

In: Check if protein stability index >= 0.5 (inclusive). Item: `TVHVIVVCRELA`
Out: Condition not met

In: Check if protein stability index >= 0.5 (inclusive). Item: `LSRLIFKVSVLM`
Out: Condition not met

In: Check if protein stability index >= 0.5 (inclusive). Item: `TLSRTPVSPSAP`
Out: Condition met

In: Check if protein stability index >= 0.5 (inclusive). Item: `FWILLRVLIFVL`
Out: Condition not met

In: Check if protein stability index >= 0.5 (inclusive). Item: `IVRSLFGYLCVV`
Out: Condition met

In: Check if protein stability index >= 0.5 (inclusive). Item: `LFFFLFSLLIFF`
Out: Condition not met

In: Check if protein stability index >= 0.5 (inclusive). Item: `CFGSALLKCWLC`
Out: Condition not met

In: Check if protein stability index >= 0.5 (inclusive). Item: `RLLSIFKILHVG`
Out: Condition not met

In: Check if protein stability index >= 0.5 (inclusive). Item: `VSGSFRVCFRVW`
Out: Condition met

In: Check if protein stability index >= 0.5 (inclusive). Item: `WVRIIIKLRASL`
Out: Condition not met

In: Check if protein stability index >= 0.5 (inclusive). Item: `VLYWTGTLFVSL`
Out: Condition not met

In: Check if protein stability index >= 0.5 (inclusive). Item: `SVLVWFLVFLVW`
Out: Condition not met

In: Check if protein stability index >= 0.5 (inclusive). Item: `GQSRLVADLRQV`
Out: Condition met

In: Check if protein stability index >= 0.5 (inclusive). Item: `DAGSSYRFFRFI`
Out: Condition met

In: Check if protein stability index >= 0.5 (inclusive). Item: `ILGQSVIMRIKM`
Out: Condition met

In: Check if protein stability index >= 0.5 (inclusive). Item: `GPHATYLYLVLA`
Out: Condition not met

In: Check if protein stability index >= 0.5 (inclusive). Item: `LAPPFPVVLTPA`
Out: Condition not met

In: Check if protein stability index >= 0.5 (inclusive). Item: `FGPVLLVSFLFS`
Out: Condition not met

In: Check if protein stability index >= 0.5 (inclusive). Item: `WDEVVAIVVCPV`
Out: Condition not met

In: Check if protein stability index >= 0.5 (inclusive). Item: `PFPRCRLIFFFM`
Out: Condition not met

In: Check if protein stability index >= 0.5 (inclusive). Item: `PPSPPLLFHFPP`
Out: Condition met

In: Check if protein stability index >= 0.5 (inclusive). Item: `FFVMVFTVEVFV`
Out: Condition not met

In: Check if protein stability index >= 0.5 (inclusive). Item: `GGIVLLVRVCGP`
Out: Condition met

In: Check if protein stability index >= 0.5 (inclusive). Item: `RLSTPFTVNHFI`
Out: Condition not met

In: Check if protein stability index >= 0.5 (inclusive). Item: `RTWFTYMSIPVW`
Out: Condition not met

In: Check if protein stability index >= 0.5 (inclusive). Item: `VLLFGLAFFFSF`
Out: Condition not met

In: Check if protein stability index >= 0.5 (inclusive). Item: `RDASLLFHFFVC`
Out: Condition not met

In: Check if protein stability index >= 0.5 (inclusive). Item: `TGPLVHLLCCCV`
Out: Condition not met

In: Check if protein stability index >= 0.5 (inclusive). Item: `PLPCFVLRLPVF`
Out: Condition not met

In: Check if protein stability index >= 0.5 (inclusive). Item: `FLCIFFFFLISF`
Out: Condition not met
